A compilation of IC50 values for dN-SARM1 protein (Homo sapiens, UniProt Q6SZW1) from the published literature.
assay endpoint: IC50

molecule="CC(c1ccncc1)n1ccc(NC(C)C(F)(F)F)n1 (racemic)" target_of_assay="dN-SARM1 protein (Homo sapiens, UniProt Q6SZW1)" test_result="1000 to 10000 nM"
molecule=O=C(CCc1ccc(Cl)cc1)Nc1[nH]nc(-c2ccncc2)c1C(F)(F)F target_of_assay="dN-SARM1 protein (Homo sapiens, UniProt Q6SZW1)" test_result="< 1000 nM"
molecule=O=C(CCc1ccc(Cl)cc1)Nc1[nH]nc(-c2ccncc2)c1Cl target_of_assay="dN-SARM1 protein (Homo sapiens, UniProt Q6SZW1)" test_result="< 1000 nM"
molecule=Cc1c(-c2ccncc2)n[nH]c1N(C)C(=O)CCc1ccc(Cl)cc1 target_of_assay="dN-SARM1 protein (Homo sapiens, UniProt Q6SZW1)" test_result="< 1000 nM"
molecule=O=C(CCc1cc(F)c(Cl)c(F)c1)Nc1cnn(-c2ccncc2)c1Cl target_of_assay="dN-SARM1 protein (Homo sapiens, UniProt Q6SZW1)" test_result="< 1000 nM"
molecule=O=C(CCc1ccc(Cl)cc1)Nc1cnn(-c2ccncc2)c1 target_of_assay="dN-SARM1 protein (Homo sapiens, UniProt Q6SZW1)" test_result="1000 to 10000 nM"
molecule=O=C(NCc1cc(F)c(F)c(F)c1)Nc1cc(-c2ccncc2)n[nH]1 target_of_assay="dN-SARM1 protein (Homo sapiens, UniProt Q6SZW1)" test_result="< 1000 nM"
molecule="FC(c1ccncc1)c1ccn(CC(F)(F)F)n1 (racemic)" target_of_assay="dN-SARM1 protein (Homo sapiens, UniProt Q6SZW1)" test_result="10000 to 100000 nM"
molecule="CC(c1ccncc1)c1ccn(CC(F)F)n1 (racemic)" target_of_assay="dN-SARM1 protein (Homo sapiens, UniProt Q6SZW1)" test_result="1000 to 10000 nM"
molecule=Cc1c(-c2ccncc2)n[nH]c1NC(=O)CCc1ccc(F)c(F)c1 target_of_assay="dN-SARM1 protein (Homo sapiens, UniProt Q6SZW1)" test_result="< 1000 nM"
molecule=Cc1c(-c2ccncc2)n[nH]c1NC(=O)CCc1cc(Cl)cs1 target_of_assay="dN-SARM1 protein (Homo sapiens, UniProt Q6SZW1)" test_result="< 1000 nM"
molecule=O=C(Nc1ccn(Cc2ccncc2)n1)c1csc(Cl)c1 target_of_assay="dN-SARM1 protein (Homo sapiens, UniProt Q6SZW1)" test_result="1000 to 10000 nM"
molecule=N#Cc1ccc(Cl)cc1Cc1cc(Cl)ccc1C#N target_of_assay="dN-SARM1 protein (Homo sapiens, UniProt Q6SZW1)" test_result="> 10000 nM"
molecule="Cc1c(-c2ccncc2)n[nH]c1NC(=O)CC1CCCc2cc(Cl)ccc21 (centres unmarked)" target_of_assay="dN-SARM1 protein (Homo sapiens, UniProt Q6SZW1)" test_result="1000 to 10000 nM"
molecule=Cc1cnccc1Cc1ccn(CC(F)(F)F)n1 target_of_assay="dN-SARM1 protein (Homo sapiens, UniProt Q6SZW1)" test_result="1000 to 10000 nM"
molecule="CC(c1ccncc1)n1ccc(CC(F)F)n1 (racemic)" target_of_assay="dN-SARM1 protein (Homo sapiens, UniProt Q6SZW1)" test_result="1000 to 10000 nM"
molecule=Cc1cccc(CCC(=O)Nc2[nH]nc(-c3ccncc3)c2C)c1 target_of_assay="dN-SARM1 protein (Homo sapiens, UniProt Q6SZW1)" test_result="1000 to 10000 nM"
molecule=Cc1cnccc1-c1n[nH]c(NC(=O)CCc2ccc(C#N)c(F)c2)c1C target_of_assay="dN-SARM1 protein (Homo sapiens, UniProt Q6SZW1)" test_result="1000 to 10000 nM"
molecule=Cc1c(NC(=O)OCc2ccc(Cl)cc2)cnn1-c1ccncc1 target_of_assay="dN-SARM1 protein (Homo sapiens, UniProt Q6SZW1)" test_result="< 1000 nM"
molecule=Cc1c(-c2ccncc2)n[nH]c1NC(=O)CCc1c(F)c(F)c(F)c(F)c1F target_of_assay="dN-SARM1 protein (Homo sapiens, UniProt Q6SZW1)" test_result="< 1000 nM"
molecule=Cc1c(-c2ccncc2)n[nH]c1N(C(=O)CCc1ccccc1)C(=O)CCc1ccc(Cl)cc1 target_of_assay="dN-SARM1 protein (Homo sapiens, UniProt Q6SZW1)" test_result="< 1000 nM"
molecule=FC(F)(F)Cc1ccn(Cc2ccncc2)n1 target_of_assay="dN-SARM1 protein (Homo sapiens, UniProt Q6SZW1)" test_result="< 1000 nM"
molecule=Cc1c(NC(=O)CCc2ccc(Cl)nc2)cnn1-c1ccncc1 target_of_assay="dN-SARM1 protein (Homo sapiens, UniProt Q6SZW1)" test_result="< 1000 nM"
molecule="O=C(Nc1ccn(Cc2ccncc2)n1)C1COc2ccccc2C1 (centres unmarked)" target_of_assay="dN-SARM1 protein (Homo sapiens, UniProt Q6SZW1)" test_result="1000 to 10000 nM"
molecule="[2H]C([2H])([2H])C(c1ccncc1)c1ccn(CC(F)(F)F)n1 (racemic)" target_of_assay="dN-SARM1 protein (Homo sapiens, UniProt Q6SZW1)" test_result="1000 to 10000 nM"
molecule=Cc1c(-c2ccncc2)n[nH]c1NC(=O)CS(=O)(=O)c1ccc(Cl)cc1 target_of_assay="dN-SARM1 protein (Homo sapiens, UniProt Q6SZW1)" test_result="< 1000 nM"
molecule=O=C(CCc1ccc(Cl)c(F)c1)Nc1[nH]nc(-c2ccncc2)c1CO target_of_assay="dN-SARM1 protein (Homo sapiens, UniProt Q6SZW1)" test_result="< 1000 nM"
molecule=O=C(CCc1cc(F)c(F)c(F)c1)Nc1cnn(-c2ccncc2)c1Cl target_of_assay="dN-SARM1 protein (Homo sapiens, UniProt Q6SZW1)" test_result="< 1000 nM"
molecule=Cc1c(-c2ccncc2)n[nH]c1NC(=O)CCc1cnc(Cl)s1 target_of_assay="dN-SARM1 protein (Homo sapiens, UniProt Q6SZW1)" test_result="< 1000 nM"
molecule=Cc1c(-c2ccncc2)n[nH]c1NC(=O)CCc1ccc(C(F)(F)F)cc1 target_of_assay="dN-SARM1 protein (Homo sapiens, UniProt Q6SZW1)" test_result="< 1000 nM"
molecule=Cn1sc(=O)n(Cc2ccccc2)c1=O target_of_assay="dN-SARM1 protein (Homo sapiens, UniProt Q6SZW1)" test_result="< 1000 nM"
molecule=CCc1ccc(CCC(=O)Nc2[nH]nc(-c3ccncc3)c2C)cc1 target_of_assay="dN-SARM1 protein (Homo sapiens, UniProt Q6SZW1)" test_result="1000 to 10000 nM"
molecule=O=C(Nc1ccn(Cc2ccncc2)n1)c1ccc2c(c1)OCC2 target_of_assay="dN-SARM1 protein (Homo sapiens, UniProt Q6SZW1)" test_result="1000 to 10000 nM"
molecule=FC(F)Cn1ccc(Cc2ccncc2)n1 target_of_assay="dN-SARM1 protein (Homo sapiens, UniProt Q6SZW1)" test_result="1000 to 10000 nM"
molecule=CCn1c(=O)/c(=C2\Sc3ccccc3N2C)s/c1=C\c1cccc[n+]1CC target_of_assay="dN-SARM1 protein (Homo sapiens, UniProt Q6SZW1)" test_result="1000 to 10000 nM"
molecule=Cc1c(-c2ccncc2)n[nH]c1NC(=O)CCc1ccc(Cl)cc1F target_of_assay="dN-SARM1 protein (Homo sapiens, UniProt Q6SZW1)" test_result="< 1000 nM"
molecule=C[C@H](c1ccncc1)n1ccc(NCC(F)(F)F)n1 target_of_assay="dN-SARM1 protein (Homo sapiens, UniProt Q6SZW1)" test_result="10000 to 100000 nM"
molecule=Cc1c(-c2ccncc2)n[nH]c1NC(=O)CCc1ncc(Cl)s1 target_of_assay="dN-SARM1 protein (Homo sapiens, UniProt Q6SZW1)" test_result="1000 to 10000 nM"
